The measurements presented in this section are drawn from BigSolDB 2.1.

cond: in ethyl acetate, 298.15 K
reported-endpoint: solubility (mole fraction)

solubility (mole fraction) reading for `CC[C@@H](C(=O)[C@@H](C)[C@@H](O)[C@H](C)CCc1ccc(C)c(O)c1C(=O)[O-])[C@H]1O[C@](CC)([C@H]2CC[C@](O)(CC)[C@H](C)O2)C[C@@H]1C.[Na+]` : 0.00556

---

cond: in ethanol, 308.15 K
reported-endpoint: solubility (mole fraction)

solubility (mole fraction) reading for `CC[C@@H](C(=O)[C@@H](C)[C@@H](O)[C@H](C)CCc1ccc(C)c(O)c1C(=O)[O-])[C@H]1O[C@](CC)([C@H]2CC[C@](O)(CC)[C@H](C)O2)C[C@@H]1C.[Na+]` : 0.00419

---

cond: in ethanol, 293.15 K
reported-endpoint: solubility (mole fraction)

solubility (mole fraction) reading for `CC[C@@H](C(=O)[C@@H](C)[C@@H](O)[C@H](C)CCc1ccc(C)c(O)c1C(=O)[O-])[C@H]1O[C@](CC)([C@H]2CC[C@](O)(CC)[C@H](C)O2)C[C@@H]1C.[Na+]` : 0.0026

---

cond: in ethyl acetate, 313.15 K
reported-endpoint: solubility (mole fraction)
One number for each entry.

solubility (mole fraction) reading for `CC[C@@H](C(=O)[C@@H](C)[C@@H](O)[C@H](C)CCc1ccc(C)c(O)c1C(=O)[O-])[C@H]1O[C@](CC)([C@H]2CC[C@](O)(CC)[C@H](C)O2)C[C@@H]1C.[Na+]` : 0.00587

---

cond: in acetone, 283.15 K
reported-endpoint: solubility (mole fraction)
Numbers only.

solubility (mole fraction) reading for `CC[C@@H](C(=O)[C@@H](C)[C@@H](O)[C@H](C)CCc1ccc(C)c(O)c1C(=O)[O-])[C@H]1O[C@](CC)([C@H]2CC[C@](O)(CC)[C@H](C)O2)C[C@@H]1C.[Na+]` : 0.0117

---

cond: in methanol, 318.15 K
reported-endpoint: solubility (mole fraction)
Answers are plain numbers.

solubility (mole fraction) reading for `CC[C@@H](C(=O)[C@@H](C)[C@@H](O)[C@H](C)CCc1ccc(C)c(O)c1C(=O)[O-])[C@H]1O[C@](CC)([C@H]2CC[C@](O)(CC)[C@H](C)O2)C[C@@H]1C.[Na+]` : 0.00508

---

cond: in acetone, 303.15 K
reported-endpoint: solubility (mole fraction)
Answers are plain numbers.

solubility (mole fraction) reading for `CC[C@@H](C(=O)[C@@H](C)[C@@H](O)[C@H](C)CCc1ccc(C)c(O)c1C(=O)[O-])[C@H]1O[C@](CC)([C@H]2CC[C@](O)(CC)[C@H](C)O2)C[C@@H]1C.[Na+]` : 0.0125

---

cond: in acetone, 318.15 K
reported-endpoint: solubility (mole fraction)
One number for each entry.

solubility (mole fraction) reading for `CC[C@@H](C(=O)[C@@H](C)[C@@H](O)[C@H](C)CCc1ccc(C)c(O)c1C(=O)[O-])[C@H]1O[C@](CC)([C@H]2CC[C@](O)(CC)[C@H](C)O2)C[C@@H]1C.[Na+]` : 0.0132

---

cond: in isopropanol, 308.15 K
reported-endpoint: solubility (mole fraction)
One number for each entry.

solubility (mole fraction) reading for `CC[C@@H](C(=O)[C@@H](C)[C@@H](O)[C@H](C)CCc1ccc(C)c(O)c1C(=O)[O-])[C@H]1O[C@](CC)([C@H]2CC[C@](O)(CC)[C@H](C)O2)C[C@@H]1C.[Na+]` : 0.00161
